Where do the numbers come from? From paper PMC4640650.

Biological target: ATP synthase c-subunit (c9 rotor ring) (Mycolicibacterium phlei, UniProt A0A5N5V239)
Assay: X-ray cocrystal structure
Assay type: binding
Endpoint Label: IC50

Prompt: Report IC50 for COc1nc2ccc(Br)cc2cc1[C@@H](c1ccccc1)[C@@](O)(CCN(C)C)c1cccc2ccccc12 [BDQ, Bedaquiline] please.
Response: 20 to 25 nM
